Tested on: Aedes aegypti
protocolDetails: Larvicidal activity against Aedes aegypti Paea assessed as mortality after 24 hrs by tube assay
Format: functional
conditionInfo: read-out: LD50 (the source's name)
measuredQuantity: LC50

Which LC50 value belongs to `C[C@H]1C(=O)CC[C@@H]2[C@]1(C)CC[C@H]1[C@@]2(C)C[C@H](O)[C@@]2(C)[C@@H]3CC(C)(C)CC[C@]3(C)[C@@H](O)C[C@]12C` ?
> 10 µM

Do the same for CC(=O)OC[C@]12[C@H](OC(C)=O)[C@H](OC(C)=O)[C@H]3OC(=O)C(C)(O)CCc4ncccc4C(=O)OC[C@@]4(C)O[C@@]1([C@H]3C)[C@@H](OC(C)=O)[C@@H]4C(=O)[C@@H]2OC(C)=O (stereo partly drawn) please
> 10 µM

Item: CC(=O)OC[C@]12[C@H](OC(C)=O)[C@H](OC(=O)c3ccccc3)[C@H]3OC(=O)C(C)(O)CCc4ccncc4C(=O)OC[C@@]4(C)O[C@@]1([C@H]3C)[C@@H](OC(C)=O)[C@@H]4[C@@H](OC(C)=O)[C@@H]2OC(C)=O (stereo partly drawn)
> 10 µM
